# target_or_test_system: human mGlu2 receptor (Homo sapiens, UniProt Q14416)
# Construct: expressed in transfected cells; host or cells: CHO cells (membrane preparation)
# Sequence (Q14416 19-872): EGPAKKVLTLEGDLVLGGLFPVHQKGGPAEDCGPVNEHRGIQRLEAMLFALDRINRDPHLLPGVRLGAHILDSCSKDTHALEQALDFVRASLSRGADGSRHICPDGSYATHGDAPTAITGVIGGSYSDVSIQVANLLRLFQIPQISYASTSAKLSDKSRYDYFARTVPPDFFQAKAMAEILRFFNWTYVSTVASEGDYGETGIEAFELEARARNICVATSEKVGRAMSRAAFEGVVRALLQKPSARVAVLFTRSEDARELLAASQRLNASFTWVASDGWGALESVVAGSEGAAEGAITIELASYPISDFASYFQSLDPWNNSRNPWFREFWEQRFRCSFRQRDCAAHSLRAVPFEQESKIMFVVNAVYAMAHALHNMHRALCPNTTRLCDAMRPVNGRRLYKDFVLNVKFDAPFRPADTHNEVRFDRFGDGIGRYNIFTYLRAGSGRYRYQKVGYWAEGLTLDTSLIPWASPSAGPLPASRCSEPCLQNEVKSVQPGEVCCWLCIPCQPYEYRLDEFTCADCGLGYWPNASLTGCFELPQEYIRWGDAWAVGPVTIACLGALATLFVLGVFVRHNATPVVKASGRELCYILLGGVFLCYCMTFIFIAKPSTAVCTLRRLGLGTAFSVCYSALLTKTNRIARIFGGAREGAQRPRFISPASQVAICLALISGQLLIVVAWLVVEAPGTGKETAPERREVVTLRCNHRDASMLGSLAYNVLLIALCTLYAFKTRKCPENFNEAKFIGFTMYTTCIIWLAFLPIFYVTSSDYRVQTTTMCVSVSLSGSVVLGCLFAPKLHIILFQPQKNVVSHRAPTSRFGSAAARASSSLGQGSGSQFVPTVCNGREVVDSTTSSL
# method_summary: [35S]GTPγS binding assay (mGluR2 negative allosteric modulation)
# Assay type: biochemical
# measurement_setup: membranes from CHO cells transfected with human mGlu2 receptor; glutamate 60 μM; pIC50 = −log IC50 (M); read-out: GTPγS - hmGluR2 anGT pIC50 (converted)
parameter: IC50

| compound | recorded_measurement |
| --- | --- |
| C[C@H]1CN(c2ccc(C(F)(F)F)c(CF)c2)C(=O)c2c(-c3ccnc(N(C)C)c3)cnn21 | 4.17e-09 M |
| Cc1cc(-c2cnn3c2C(=O)N(c2ccc(OC(F)(F)F)cc2)C[C@@H]3C)ccn1 | 1e-08 M |
| Cc1cc(-c2cnn3c2C(=O)N(c2ccc(C(C)O)cc2)C[C@@H]3C)ccn1 (stereo partly shown) | > 5.01e-05 M |
| Cc1cc(-c2cnn3c2C(=O)N(c2ccc(Cl)c(Cl)c2)C[C@@H]3C)cc[n+]1[O-] | 7.24e-08 M |
| Cc1cc(-c2cnn3c2C(=O)N(c2ccc(F)c(C)c2)C[C@@H]3C)ccn1 | 6.17e-08 M |
| Cc1cc(N2C[C@H](C)n3ncc(-c4ccnc(N5CCC5)c4)c3C2=O)ccc1C(F)(F)F | 3.55e-09 M |
| C[C@H]1CN(c2ccc(Cl)c(C(F)(F)F)c2)C(=O)c2c(-c3ccncc3)cnn21 | 7.08e-08 M |
| Cc1cc(-c2cnn3c2C(=O)N(c2ccc(C(F)(F)F)cc2)CC3)ccn1 | 1.48e-06 M |
| Cc1cc(-c2cnn3c2C(=O)N(c2ccc(C(F)(F)F)c(C#N)c2)C[C@@H]3C)ccn1 | 2.95e-08 M |
| COc1cc(N2C[C@H](C)n3ncc(-c4ccncc4)c3C2=O)ccc1C(F)(F)F | 2.63e-08 M |
| C[C@H]1CN(c2ccc(C(F)(F)F)c(Cl)c2)C(=O)c2c(-c3ccnc(CF)c3)cnn21 | 5.5e-09 M |
| C[C@H]1CN(c2ccc(Cl)c(Cl)c2)C(=O)c2c(-c3ccnc(F)c3)cnn21 | 5.5e-09 M |
| Cc1cc(-c2cnn3c2C(=O)N(c2ccc(OC(F)F)c(Cl)c2)C[C@@H]3C)ccn1 | 2.51e-08 M |
| C[C@H]1CN(c2ccc(Cl)c(Cl)c2)C(=O)c2c(-c3ccnc(CO)c3)cnn21 | 1.78e-07 M |
| CNc1cc(-c2cnn3c2C(=O)N(c2ccc(Cl)c(Cl)c2)CC3CF)ccn1 (single isomer, unassigned) [compound 185] | 6.03e-09 M |
| Cc1cc(-c2cnn3c2C(=O)N(c2ccc(Cl)cc2Cl)CC3)ccn1 | 8.71e-06 M |
